Data provenance is paper PMC11204085.

- Tested Target: AgifCSP5 (Aphidius gifuensis, UniProt A0A3Q9ELG9)
- Sequence (A0A3Q9ELG9 entry or part of it): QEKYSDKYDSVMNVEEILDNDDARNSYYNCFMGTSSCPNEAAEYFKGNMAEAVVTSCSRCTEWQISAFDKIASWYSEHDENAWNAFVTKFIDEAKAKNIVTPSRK
- Method Description: Fluorescence competitive binding assay with 1-NPN probe, wild-type AgifCSP5
- Source text: The candidate VOCs were mainly derived from various organic volatiles in wheat field habitats, referring to the compounds related to wheat plants and wheat aphids previously reported in a published paper by Jiang et al. in 2022 and 2023 [11, 12], including four groups of ligands: (1) aphid alarm pheromone components; (2) aphid sex pheromone; (3) green leaf volatiles of wheat; and (4) aphid-induced plant volatiles. […]
Entries and their Ki values follow.

[
  {
    "Compound": "COc1cc(C(C)=O)cc(OC)c1O",
    "Ki, µM": 27.3
  },
  {
    "Compound": "C=CC(=C)CCC=C(C)C",
    "Ki, µM": 16.7
  },
  {
    "Compound": "C=C(C)[C@@H]1CC=C(C)C(=O)C1 [(R)-(−)-Carvone]",
    "Ki, µM": 17
  },
  {
    "Compound": "CC(=O)OC/C=C(\\C)CCC=C(C)C [Geranyl acetate]",
    "Ki, µM": 20.2
  },
  {
    "Compound": "CC/C=C\\CCOC(C)=O [cis-3-Hexenyl acetate]",
    "Ki, µM": 18.2
  },
  {
    "Compound": "CC(=O)CCC=C(C)C",
    "Ki, µM": 18.2
  },
  {
    "Compound": "O=Cc1ccccc1",
    "Ki, µM": 13.5
  },
  {
    "Compound": "CC/C=C\\CC1C(=O)CCC1CC(=O)OC (stereo not drawn) [Methyl jasmonate]",
    "Ki, µM": 14.9
  },
  {
    "Compound": "CCCCCCCCCCCCCCCCCCC",
    "Ki, µM": 28.8
  },
  {
    "Compound": "OCc1ccccc1",
    "Ki, µM": 16.6
  },
  {
    "Compound": "CCCCCC/C=C/C=O [trans-2-Nonenal]",
    "Ki, µM": 12.3
  },
  {
    "Compound": "CCCCCCCCCCCCCCCCCCCCC",
    "Ki, µM": 16.7
  },
  {
    "Compound": "CC/C=C\\CCO [cis-3-Hexen-1-ol]",
    "Ki, µM": 17.3
  },
  {
    "Compound": "COC(=O)c1ccccc1O [Methyl salicylate]",
    "Ki, µM": 15.3
  },
  {
    "Compound": "CCCC/C=C\\CCO [cis-3-Octen-1-ol]",
    "Ki, µM": 12.6
  },
  {
    "Compound": "CC1=CC[C@@H]2C[C@H]1C2(C)C [(1R)-(+)-α-Pinene]",
    "Ki, µM": 16.7
  },
  {
    "Compound": "C=C1CCC2(C(C)C)CC12 (stereo not drawn)",
    "Ki, µM": 12.1
  },
  {
    "Compound": "CCC/C=C\\CO [cis-2-Hexen-1-ol]",
    "Ki, µM": 25.6
  }
]
